# Test system: L1210 leukemia ip in BDF1 mice, survival T/C
# assay explanation: NCI In Vivo Anticancer Drug Screen. Data for tumor model L1210 Leukemia (intraperitoneal) in B6D2F1 (BDF1) mice
# experimental parameters: endpoint: mean survival time; dose: 6.25 mg/kg/injection; schedule: Q04DX003 (ip); vehicle: saline; higher = longer survival
Toxic doses and inconclusive results are not listed.
attribute measured: T/C

Find T/C (L1210 leukemia ip in BDF1 mice, survival T/C) for the entry CCS(=O)(=O)c1ccc2nnnn2n1
103 % of control

Find T/C (L1210 leukemia ip in BDF1 mice, survival T/C) for the entry C/C=C/C(=O)OCCC[N+](C)(C)C
111 % of control

Find T/C (L1210 leukemia ip in BDF1 mice, survival T/C) for the entry CC(CN(C)C)CN1c2ccccc2Sc2ccc(C(F)(F)F)cc21 (centres undefined)
97 % of control

Find T/C (L1210 leukemia ip in BDF1 mice, survival T/C) for the entry CCOCC(C#N)C#N
96 % of control
